From: ChEMBL document CHEMBL6182924

- System: NCI-H1975
- MEASUREMENT NOTES: Antiproliferative activity against human NCI-H1975 cells incubated for 3 days by CCK-8 assay
- Type: functional, cell-based
- TEST CONDITIONS: NCI-H1975, 72 h
RESULT TYPE: pIC50
Quick note: pIC50 means taking -log10 of the concentration in moles per liter.

// pIC50 lookup, key: `COc1cccc(-c2ccc(-c3nc4c5cccnc5c5ncccc5c4[nH]3)o2)c1`
5.77

###

- SYSTEM TESTED: Quadruplex DNA
- MEASUREMENT NOTES: Binding affinity to c-MET G4-quadruplex DNA (unknown origin) assessed as dissociation constant by MST assay
RESULT TYPE: pKd
pKd is a log-scale quantity: -log10 of the concentration expressed in molar.

Would you kindly share the measured pKd for `COc1cccc(-c2ccc(-c3nc4c5cccnc5c5ncccc5c4[nH]3)o2)c1` ?
7.13
